# Assay Procedure: Pharmacokinetic study, 4ET-03-009 at 20 mg/kg oral
# Type: in vivo, CD-1 male mice
# Settings: male, CD-1, mouse, plasma, po, 20 mg/kg, individual animals
Experimental Readout: half-life

Query string: If you can, please state the reported half-life value of Cc1cc(Nc2cc(NC(=O)C3CC3)ncn2)c(=O)n2c1C(=O)NC21CCOCC1 .
Result string: 3.58 h

====

In this section we review reported efflux ratio at 5 μM values for a set of compounds.
# Tested on: P-gp (human MDR1, ABCB1)
# Assay Procedure: MDCK-MDR1 permeability (blood brain barrier permeability)
# Type: in vitro ADME, Canine
# Settings: dog, MDCK-MDR1, 5 μM; read-out: Efflux ratio (ratio B-A/A-B)
Reply briefly: the number, and no unit.

Query string: If you can, please state the reported efflux ratio at 5 μM value of Cc1cc(Nc2cc(N)ncn2)c(=O)n2c1C(=O)NC21CCC(NS(C)(=O)=O)CC1 (stereo not drawn) .
Result string: 4.4

Query string: If you can, please state the reported efflux ratio at 5 μM value of Cc1cc(Nc2cc(NCCNS(C)(=O)=O)ncn2)c(=O)n2c1C(=O)NC21CCCCC1 .
Result string: 30.2

Query string: If you can, please state the reported efflux ratio at 5 μM value of Cc1cc(Nc2cc(NCCN3CCOCC3)ncn2)c(=O)n2c1C(=O)NC21CCCCC1 .
Result string: 9.4

Query string: If you can, please state the reported efflux ratio at 5 μM value of Cc1cc(Nc2cc(NC(=O)C3CC3)ncn2)c(=O)n2c1C(=O)NC21Cc2ccccc2[C@@H]1O (stereo in doubt) .
Result string: 10.2

Query string: If you can, please state the reported efflux ratio at 5 μM value of Cc1cc(Nc2cc(NC(=O)C(C)C)ncn2)c(=O)n2c1C(=O)NC21CCCC1 .
Result string: 3.8

Query string: If you can, please state the reported efflux ratio at 5 μM value of Cc1cc(Nc2cc(NC(=O)C3CC3)ncn2)c(=O)n2c1C(=O)NC21CCOCC1 .
Result string: 4.6
